Value source: the supplement of paper PMC9170038

- Tested on: MS2 coat protein
- test method notes: apparent KD of MS2 coat protein; designed switch direction (-1 OFF switch, 1 ON switch): -1; higher = weaker reporter binding
- reported conditions: input ligand: microRNA oligo, concentration not stated
Reported apparent KD of MS2 coat protein is given for each of the following sequences.
Expressed in nM, but write only the number.

Before answering, review these 2 worked examples.
{"construct sequence": "CUAGCGAUUGUAGGAUAUCGAUGUGUUUCACAUCGAGAAGGACAUGAGGAUCACCCAUGUGAAGGAUCGUGAGAUCCACGCUAG [JL ENG1 3.78] (Eterna round: R96, puzzle: Exclusion NG 1)", "quantity name": "apparent KD of MS2 coat protein", "result value": 17.5}
{"construct sequence": "ACAUGAGGAUCACCCAUGUACACGUAAUGGCUCAUGUAGAGUGAGGAUAUGUGAGACGAACGAGCACAGAAGGCACAAGACUGG [Deportation 11 - Jieux - Exclusion NG 3] (Eterna round: R96, puzzle: Exclusion NG 3)", "quantity name": "apparent KD of MS2 coat protein", "result value": 21.8}

Then this sequence:
Find apparent KD of MS2 coat protein (MS2 coat protein) for the entry UUAAAUAAUGUAGGAUAUGCAAGGCGAACCUAAGCAGAAGGACAUGAGGAUCACCCAUGUAAUGCGGUCUGCGUACAGAUCGCA [JL ENG1 1.01] (Eterna round: R96, puzzle: Exclusion NG 1) 23.2

----------
A collection of sequences and their measured apparent KD of K4 kissing-loop reporter
- System: K4 kissing-loop RNA reporter;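 further: bound reporter read as fluorescence of individual clusters on recovered sequencing chips by microscopy, with normalized cluster intensities fitted with a binding model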
- test method notes: apparent KD of K4 kissing-loop reporter; higher = weaker reporter binding
- reported conditions: Eterna round: R107; input ligand: none
# number then unit; no other words

Missing value: apparent KD of K4 kissing-loop reporter, K4 kissing-loop RNA reporter, entry CCUAUCUCAUACGAUACCAGUCGUCGAGUGAUGUUCGAUUAAAUAUAUUUGCCAAAUAACGACCCUUGGCAGCGUAUGGGAUAGG [Ex Theophylline B K4 17] . Fill in? 340 nM

Missing value: apparent KD of K4 kissing-loop reporter, K4 kissing-loop RNA reporter, entry UUUGUAUAGGGAAGGAGCGUGAAUGAUAAUGAAUAUAGUGAUGUUAUAUAUAAGAAAGAAUCACAGGUAGGUCGCCCGGAGGAGG [SSArgB.J] . Fill in? 668 nM

Query the reported apparent KD of K4 kissing-loop reporter for K4 kissing-loop RNA reporter; item: GGUGACAACCAGAGGUGAUGUAUAGUAUCGCGAGGACCGGUACGGCCGCCACUCGUGAAGAGAAAGGAGUGAUGUUCCGUAAUGG [Kazoo C7] 272 nM

Form entry - test system: K4 kissing-loop RNA reporter; read-out: apparent KD of K4 kissing-loop reporter; sequence: UUUCUUUUUUUGAUGUUUUUUGUAUAAUGGCAGGAUAUCGUAGAUGCGAGAAGGGCUUUUAUGCGUUAUGAGUGAUGUUUGUAGG [aaxazvmullin] 320 nM

Lab request: please report apparent KD of K4 kissing-loop reporter under test system K4 kissing-loop RNA reporter for GAUGAAGAGUCGUUAGUUAGGGCUUUCGAUACCAGCGCCCGUCCACGCCCUUGGCAGCGAUUGAAAGAGUGAUGUUCUGUCAGGA [theeternabot_exclusion_KL_Theo_A_31] 546 nM

I'm curious: which apparent KD of K4 kissing-loop reporter was measured for GGUAGCAUGGCGGCCGCCACUAACAACCUCACCUGCGGCUCGAUCGAGUGAUGUUCGAACGCAAUUAGGACCGGGCCAUGCUACC tested on K4 kissing-loop RNA reporter? 141 nM
